Sourced from PubChem BioAssay (NCI)

Tested on: M14 melanoma
Assay: NCI-60 one-dose screen, 48 h (100 = growth as untreated, 0 = no growth, -100 = all killed)
Conditions: 10 µM unless noted
Compounds without any hit were thinned out: in the full panel of roughly 83,000, 20% have a hit.
Class assignment keyed on growth, ranges zone 1 (below 20%), zone 2 (20% to below 70%), zone 3 (70% or more)

Hi, small favor: classify C=C1CC[C@@H]2[C@]3(C)COC(c4cn[nH]c4-c4ccccc4)O[C@@H]3CC[C@@]2(C)[C@@H]1C/C=C1/C(=O)OCC1O (stereo partly drawn) by its growth when you get a moment.
zone 1

Hi, small favor: classify COc1ccc(/C=C2\C(=N)N=C(SCc3nc4ccccc4[nH]3)NC2=O)cc1 by its growth when you get a moment.
zone 3

Hi, small favor: classify Cc1ccc(-c2nc(Nc3ccccc3S(N)(=O)=O)c3ccccc3n2)cc1 by its growth when you get a moment.
zone 3

Hi, small favor: classify CCCCOc1ccc(NC(=O)c2sc3nc(C)ccc3c2N)cc1 by its growth when you get a moment.
zone 2

Hi, small favor: classify Clc1cccc(-c2ccc(OCCCN3CCN(c4ccncc4)CC3)cc2)c1 by its growth when you get a moment.
zone 1

Hi, small favor: classify COc1cc(/C=C/C(=O)c2nnn(-c3ccc(Cl)cc3)c2C)cc(OC)c1OC by its growth when you get a moment.
zone 2

Hi, small favor: classify C#CCOc1ccc(/C=N/Nc2nc(-c3ccc(F)cc3)cs2)cc1OC by its growth when you get a moment.
zone 2

Hi, small favor: classify CC(=O)Oc1ccc(/C=C/C(=O)N[C@@H](Cc2ccccc2)C(O)C(=O)NCc2ccccc2)cc1OC(C)=O (stereo partly drawn) by its growth when you get a moment.
zone 3

Hi, small favor: classify CCCCCCCCc1ccc(S(=O)(=O)Nc2ccc(CC)cc2C(=O)O)cc1 by its growth when you get a moment.
zone 3

Hi, small favor: classify O=C1N/C(=N\c2nccs2)S/C1=C\C=C/c1ccccc1 by its growth when you get a moment.
zone 1

Hi, small favor: classify CN1CCN(c2ccc(C(=O)/C=C/c3ccc(Br)cc3)cc2)CC1 by its growth when you get a moment.
zone 1

Hi, small favor: classify OCNc1ccc(-n2cnc3cc(-c4ccc(O)cc4)ccc32)cc1C(F)(F)F by its growth when you get a moment.
zone 1

Hi, small favor: classify COc1ccc(C2=NN(C(C)=O)C(c3ccc(OCc4ccc(Cl)cc4)c(OC)c3)C2)cc1OC (stereo not drawn) by its growth when you get a moment.
zone 2

Hi, small favor: classify CC(=O)OC[C@@]1(C)C2CC[C@]3(C)C(CC=C4C5CC(C)(C)CC[C@]5(C(=O)Nc5ccc(Br)cc5)CC[C@]43C)[C@@]2(C)C[C@@H](OC(C)=O)[C@@H]1OC(C)=O (stereo partly drawn) by its growth when you get a moment.
zone 2

Hi, small favor: classify Cc1sc2c(c1C)C(c1ccc(Cl)cc1)=N[C@@H](CC(=O)NCCCCCNC(=O)COc1ccc(C3CCC(=O)NC3=O)cc1)c1nnc(C)n1-2 (stereo partly drawn) by its growth when you get a moment.
zone 1

Hi, small favor: classify COc1ccc2c(c1)C(=N/N=C(\C)c1ccc(OC)c(S(N)(=O)=O)c1)C(=O)N2 by its growth when you get a moment.
zone 3

Hi, small favor: classify CC1=C(C(=O)c2ccccc2)C(c2cccc3ccccc23)n2c(nc3ccccc32)N1 (stereo not drawn) by its growth when you get a moment.
zone 3

Hi, small favor: classify CC(=O)OC[C@@]1(C)C2CC[C@]3(C)C(CC=C4C5CC(C)(C)CC[C@]5(C(=O)Nc5ccc(F)cc5)CC[C@]43C)[C@@]2(C)C[C@@H](OC(C)=O)[C@@H]1OC(C)=O (stereo partly drawn) by its growth when you get a moment.
zone 2

---

Test system: MDA-MB-231 breast
Assay: NCI-60 one-dose screen, 48 h (100 = growth as untreated, 0 = no growth, -100 = all killed)
Conditions: 10 µM unless noted
About 83,000 compounds went through this panel and 20% of them were active in at least one assay; those are over-represented in the sample as a whole.
measured_quantity: growth (%)
Give a bare numeral; the unit % is implied.

For O=C(c1ccc(OCCN2CCOCC2)cc1)C1[C@H](c2ccc(Cl)cc2)[C@@H](c2ccccc2)NC12C(=O)Nc1ccc(Br)cc12 (stereo partly specified) on MDA-MB-231 breast, measured growth was 18.2

For CC(=O)/C=C/c1cccc2c1C(=O)NC(C)(c1cc3cc(Br)ccc3oc1=O)N2 (stereo unspecified) on MDA-MB-231 breast, measured growth was 18

For CC(=O)Oc1ccc(/C=C/C(=O)N[C@@H](Cc2ccccc2)C(O)C(=O)NCc2ccccc2)cc1OC(C)=O (stereo partly specified) on MDA-MB-231 breast, measured growth was 72.7

For Cc1ccc(C(=O)CSc2nc3ccc(C)cc3c(=O)n2-c2ccc(F)cc2)cc1 on MDA-MB-231 breast, measured growth was 21.3

For Cn1cc(-c2cc(N)n3nc(-c4cn(C)c5ncccc45)cc3n2)c2cccnc21 on MDA-MB-231 breast, measured growth was -22.4

For CN(C)CCCNC(=O)c1cc(NC(=O)c2cc(NC(=O)c3ccc(C#Cc4ccccc4)cc3)cn2C)cn1C on MDA-MB-231 breast, measured growth was -68.8

For Cc1cc(N=C2NC(=O)CS2)n[nH]1 on MDA-MB-231 breast, measured growth was 104

For CCC(C)(C)c1ccc(OCCCCCCN2CCN(c3ccncc3)CC2)cc1 on MDA-MB-231 breast, measured growth was -77.6

For C=C1CC[C@@H]2[C@]3(C)COC(c4ccco4)O[C@@H]3CC[C@@]2(C)[C@@H]1C/C=C1/C(=O)OCC1OC(C)=O (stereo partly specified) on MDA-MB-231 breast, measured growth was 48.8

For CC(C)c1sc(NC(=O)c2cc(NC(=O)c3cc(NC(=O)c4nccn4C)cn3C)cn2C)nc1C(=O)NCCCN(C)C on MDA-MB-231 breast, measured growth was 85.5

For O=C(NNc1nc2cc(F)ccc2n2c(CN3CC4CNCC4C3)ccc12)c1ccncn1 (stereo unspecified) on MDA-MB-231 breast, measured growth was 27.5

For CC1(c2cc3cc(Cl)ccc3oc2=O)NC(=O)c2c(/C=C/C(=O)OC3CC4CCC3(C)C4(C)C)cccc2N1 (stereo unspecified) on MDA-MB-231 breast, measured growth was 75.1

For CC1=C(C#N)C2=NNCC(c3ccccc3)=NN2C(c2ccccc2)=C1 on MDA-MB-231 breast, measured growth was 105

For c1ccc(-c2csc(Nc3cccc(Nc4nc(-c5ccccc5)cs4)c3)n2)cc1 on MDA-MB-231 breast, measured growth was 48

For C=C1CC[C@@H]2[C@]3(C)COC(c4ccccc4)O[C@@H]3CC[C@@]2(C)[C@@H]1C/C=C1/C(=O)OCC1OC(C)=O (stereo partly specified) on MDA-MB-231 breast, measured growth was -83.1

For CN(C)c1nc(NCCNS(=O)(=O)c2ccc(C3=Nc4c(N)nc(N)nc4NC(c4ccc(F)cc4)C3)cc2)nc(Nc2ccc(F)cc2)n1 (stereo unspecified) on MDA-MB-231 breast, measured growth was 20.8

For C#CCOc1ccc(/C=N/Nc2nc(-c3cc4cc(Br)ccc4oc3=O)cs2)cc1OC on MDA-MB-231 breast, measured growth was 36.3

For COc1ccc(C(=O)/C=C/c2ccc(Oc3nc(Nc4ccc(F)cc4)nc(N(C)C)n3)c(OC)c2)cc1 on MDA-MB-231 breast, measured growth was 53.9

For COc1ccc2c(c1)c(-c1cc(N)n3nc(-c4cn(C)c5ccccc45)cc3n1)cn2C on MDA-MB-231 breast, measured growth was -53.8

For Cn1cc(-c2cc(N)n3nc(-c4c[nH]c5ccccc45)cc3n2)c2cccnc21 on MDA-MB-231 breast, measured growth was -9.34

For N/C(=N\c1nc2ccccc2s1)NC(=O)Nc1c(Cl)cccc1Cl on MDA-MB-231 breast, measured growth was 28.9

For Cn1cc(-c2nnc(N)nc2-c2c[nH]c3ccccc23)c2cccnc21 on MDA-MB-231 breast, measured growth was 48.5

For Cn1cc(-c2cc(N)n3nc(-c4c[nH]c5ccccc45)cc3n2)c2cc(Br)cnc21 on MDA-MB-231 breast, measured growth was -83.4

For O=C(c1ccc(Cl)cc1)c1ccc(OCCCN2CCN(c3ccncc3)CC2)cc1 on MDA-MB-231 breast, measured growth was 17.2

For Cc1sc2c(c1C)C(c1ccc(Cl)cc1)=N[C@@H](CC(=O)NCCCCCNC(=O)COc1ccc(C3CCC(=O)NC3=O)cc1)c1nnc(C)n1-2 (stereo partly specified) on MDA-MB-231 breast, measured growth was 5.01

For NS(=O)(=O)c1ccc(-n2cc(-c3cccc(NC(=O)c4cc(N5CCOCC5)cc(C(F)(F)F)c4)c3)nn2)cc1 on MDA-MB-231 breast, measured growth was 37.4

For COc1ccc(/C=C/c2nc3ccccc3n3c(-c4ccc(Cl)cc4)nnc23)cc1 on MDA-MB-231 breast, measured growth was 91.7

For CC1(C)CC[C@]2(C(=O)O)CC[C@]3(C)C(=CCC4[C@@]5(C)C[C@@H](O)[C@@H]6OC(c7ccco7)OC[C@@]6(C)C5CC[C@]43C)C2C1 (stereo partly specified) on MDA-MB-231 breast, measured growth was 59.7

For Cc1ccc(C(SCCNCc2cc(N(C)C)ccn2)(c2ccccc2)c2ccccc2)cc1 on MDA-MB-231 breast, measured growth was -56.9

For O=c1[nH]c2ccccc2cc1CSc1nccc(-c2ccc3ccccc3c2)n1 on MDA-MB-231 breast, measured growth was 58.2

For CCN1CCN(Cc2ccc(C(=O)Nc3cccc(C#Cc4cccc5[nH]nc(N)c45)c3)cc2C(F)(F)F)CC1 on MDA-MB-231 breast, measured growth was -90.8

For Cn1cc(-c2nc(N)nnc2-c2c[nH]c3ccc(F)cc23)c2cccnc21 on MDA-MB-231 breast, measured growth was 22

For Nc1nc(-c2ccccc2)c(N=Nc2ccc([N+](=O)[O-])cc2Cl)s1 on MDA-MB-231 breast, measured growth was 87.8

For C=C1CCC2C3(C)COC(c4cccs4)OC3CCC2(C)C1CC(Sc1ccccc1)C1=CCOC1=O (stereo unspecified) on MDA-MB-231 breast, measured growth was 89.3

For Cc1ccc(S(=O)(=O)c2nc(S(=O)(=O)c3ccc(C)cc3)c(N3CCC(O)CC3)s2)cc1 on MDA-MB-231 breast, measured growth was 71.8

For O=C1CC(Sc2n[nH]c(-c3ccncc3)n2)C(=O)N1c1ccc(Br)cc1 (stereo unspecified) on MDA-MB-231 breast, measured growth was 99
